# TARGET ENTITY: USP7 (Homo sapiens, UniProt Q93009, C315A)
# Construct: 0.25 nM His-His-USP7 (aa208-560, |C315A|) was incubated with compound; His-His (N)
# Sequence (Q93009 208-560 C315A): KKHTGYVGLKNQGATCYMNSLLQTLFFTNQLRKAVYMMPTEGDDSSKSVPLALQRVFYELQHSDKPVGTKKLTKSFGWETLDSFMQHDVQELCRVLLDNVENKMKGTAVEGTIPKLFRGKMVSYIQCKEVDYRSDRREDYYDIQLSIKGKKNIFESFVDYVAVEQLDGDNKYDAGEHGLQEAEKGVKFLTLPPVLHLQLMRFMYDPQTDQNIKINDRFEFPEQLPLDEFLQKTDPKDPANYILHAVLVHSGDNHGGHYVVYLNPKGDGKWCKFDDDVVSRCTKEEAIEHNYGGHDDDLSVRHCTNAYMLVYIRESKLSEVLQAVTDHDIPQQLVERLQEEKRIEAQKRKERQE
# ASSAY INFO: Inhibition of USP7 by Fluorescence Intensity (FLINT) readings, Ubiquitin-Rhodamine-110 substrate
# Format: biochemical
# CONDITION SET: 0.25 nM His-His-USP7 (aa208-560), 60 minutes at 30° C. preincubation; Ki determined from IC50 according to Cer et al.
log10 Ki listing for selected molecules.
MEASURED ATTRIBUTE: log10 Ki (log10 of the value in nM)

> print(dat)
                                    molecule                             target.entity  measured.attribute  measurement
 1  Nc1c(Oc2ccc(F)cc2)ncn(CC2(O)CCN(C(=O)[C@@H]3CCN(C(=O)c4sc(I)cc4F)C[C@H]3c3ccccc3)CC2)c1=O  USP7 (Homo sapiens, UniProt Q93009, C315A)            log10 Ki         0.91
 2  Cc1ccc(-c2ncc(CN3CC[C@@H](C(=O)N4CC[C@](O)(Cn5cnc(Oc6ccc(F)cc6)c(N)c5=O)C(F)(F)C4)[C@H](c4ccccc4)C3)s2)cn1  USP7 (Homo sapiens, UniProt Q93009, C315A)            log10 Ki         0.82
 3  Nc1c(Oc2ccccc2)ncn(CC2(O)CCN(C(=O)[C@@H]3CCN(C4(c5ccc(F)cc5)COC4)C[C@H]3c3ccccc3)CC2)c1=O  USP7 (Homo sapiens, UniProt Q93009, C315A)            log10 Ki         2.62
 4  Cc1ccc(-c2nc(C)c(C(=O)N3CC[C@@H](C(=O)N4CCC(O)(Cn5cnc(Oc6cccc(C(F)(F)F)c6)c(N)c5=O)CC4)[C@H](c4ccccc4)C3)s2)cn1  USP7 (Homo sapiens, UniProt Q93009, C315A)            log10 Ki         0.79
 5  COc1cc(Oc2ncn(C[C@@]3(O)CCN(C(=O)[C@@H]4CCN(C(=O)c5sc(-c6ccc(C)nc6)nc5C)C[C@H]4c4ccccc4)CC3(F)F)c(=O)c2N)ccc1F  USP7 (Homo sapiens, UniProt Q93009, C315A)            log10 Ki         0.75
 6  Nc1c(Oc2ccc(F)cc2)ncn(CC2(O)CCN(C(=O)[C@@H]3CCNC[C@H]3c3ccccc3)CC2)c1=O  USP7 (Homo sapiens, UniProt Q93009, C315A)            log10 Ki         2.01
 7  Cc1nc(C2CC(F)(F)C2)sc1C(=O)N1CC[C@@H](C(=O)N2CC[C@](O)(Cn3cnc(Oc4ccc(F)cc4)c(N)c3=O)C(F)(F)C2)[C@H](c2ccccc2)C1  USP7 (Homo sapiens, UniProt Q93009, C315A)            log10 Ki         1.09
 8  Cc1nc(C2CCCC2)sc1C(=O)N1CC[C@@H](C(=O)N2CCC(O)(Cn3cnc(Oc4ccc(F)cc4)c(N)c3=O)CC2)[C@H](c2ccccc2)C1  USP7 (Homo sapiens, UniProt Q93009, C315A)            log10 Ki         1.00
 9  Nc1c(Oc2ccc(F)cc2)ncn(CC2(O)CCN(C(=O)[C@@H]3CCN(C(=O)Nc4nccs4)C[C@H]3c3ccccc3)CC2)c1=O  USP7 (Homo sapiens, UniProt Q93009, C315A)            log10 Ki         1.76
10  Nc1c(Oc2ccc(F)cc2)ncn(C[C@@]2(O)CCN(C(=O)[C@@H]3CCNC[C@H]3c3ccccc3)CC2(F)F)c1=O  USP7 (Homo sapiens, UniProt Q93009, C315A)            log10 Ki         2.00
11  Cc1ccc(-c2nc(C)c(C(=O)N3CC[C@@H](C(=O)N4CCC(O)(Cn5cnc(Oc6ccc(Cl)cc6)c(N)c5=O)CC4)[C@H](c4ccccc4)C3)s2)cn1  USP7 (Homo sapiens, UniProt Q93009, C315A)            log10 Ki         0.48
12  Cn1c(C(=O)N2CC[C@@H](C(=O)N3CCC(O)(Cn4cnc(Oc5ccc(F)cc5)c(N)c4=O)CC3)[C@H](c3ccccc3)C2)c(Cl)c2ccccc21  USP7 (Homo sapiens, UniProt Q93009, C315A)            log10 Ki         0.77
13  Nc1c(Oc2ccc(F)cc2)ncn(CC2(O)CCN(C(=O)[C@@H]3CCN(C(=O)c4cc(F)cc(Br)c4)C[C@H]3c3ccccc3)CC2)c1=O  USP7 (Homo sapiens, UniProt Q93009, C315A)            log10 Ki         0.48
14  Nc1c(Oc2ccc(F)cc2)ncn(CC2(O)CCN(C(=O)[C@@H]3CCN(C(=O)c4cccc(C5CCCNC5)c4)C[C@H]3c3ccccc3)CC2)c1=O (stereo partly drawn)  USP7 (Homo sapiens, UniProt Q93009, C315A)            log10 Ki         0.90
15  Nc1c(Oc2ccc(F)cc2)ncn(CC2(O)CCN(C(=O)[C@@H]3CCN(C(=O)Nc4ccc(F)cc4)C[C@H]3c3ccccc3)CC2)c1=O  USP7 (Homo sapiens, UniProt Q93009, C315A)            log10 Ki         1.32

The origin of these recorded values is patent US20210355106A1.
